All figures here come from patent US7649002B2.

Molecular target: human MCR1 receptor (Homo sapiens, UniProt Q01726)
Construct: expressed in transfected cells
Sequence (Q01726 whole entry): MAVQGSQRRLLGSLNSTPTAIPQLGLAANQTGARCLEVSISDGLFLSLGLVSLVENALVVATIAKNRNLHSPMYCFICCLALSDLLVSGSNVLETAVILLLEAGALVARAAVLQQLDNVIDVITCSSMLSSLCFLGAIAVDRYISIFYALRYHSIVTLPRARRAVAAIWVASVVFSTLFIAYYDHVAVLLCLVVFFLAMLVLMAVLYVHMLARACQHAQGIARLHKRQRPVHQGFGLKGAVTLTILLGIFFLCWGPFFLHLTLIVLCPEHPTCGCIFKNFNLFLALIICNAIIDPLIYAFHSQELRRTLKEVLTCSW
Test: MCR1 standard functional assay (Protocol A): cAMP AlphaScreen in HEK cells
Format: cell-based
Settings: Table 6; Protocol A
measured_metric: EC50 (nM)

{"columns": ["molecule", "experimental_target", "endpoint_unit", "EC50"],
 "data": [
  ["C[C@@H]1CN(C(=O)[C@@H]2CN(c3cccnn3)C[C@H]2c2ccc(F)cc2F)C[C@H](C)[C@@]1(O)c1ccccc1.Cl [Example 35, hydrochloride]", "human MCR1 receptor (Homo sapiens, UniProt Q01726)", "nM", 1270]
]}

[A] C[C@@H]1CN(C(=O)[C@@H]2CN(C(C)(C)C)C[C@H]2c2ccc(F)cc2F)C[C@H](C)[C@@]1(O)c1ccccc1.Cl [Example 5, hydrochloride]
[B] C[C@@H]1CN(C(=O)[C@@H]2CNC[C@H]2c2ccc(F)cc2F)C[C@H](C)[C@@]1(O)c1ccc(F)cc1.Cl [Example 12, hydrochloride]
[ask] Kindly identify which of A and B has the larger recorded EC50 value. Output the label that corresponds to your choice.
[reply] A
(A: 1200 nM, B: 667 nM)
